testSummary: Pharmacokinetic parameters in rats
measurementSetup: rat, in vivo, po

compound: Cc1ccccc1-c1cc(N2CCOCC2)ncc1N(C)C(=O)C(C)(C)c1cc(C(F)(F)F)cc(C(F)(F)F)c1 [Ia]
bioavailability, %: 50
//
compound: Cc1ccccc1-c1cc(N2CCN(C)CC2)ncc1N(C)C(=O)C(C)(C)c1cc(C(F)(F)F)cc(C(F)(F)F)c1 [Ib]
bioavailability, %: 45

* * *

Where a name gives a salt, the structure may show the parent alone.

compound: CC(C)(C)NC(=O)c1cnc(Cl)cc1-c1ccc(F)cc1
melting point: 168 to 173 °C
//
compound: Cc1ccccc1-c1cc(N2CCOCC2)ncc1N(C)C(=O)C(C)(C)c1cc(C(F)(F)F)cc(C(F)(F)F)c1 (as salt: hydrochloride)
melting point: 73.5 to 76 °C
//
compound: CN(C(=O)C(C)(C)c1cc(C(F)(F)F)cc(C(F)(F)F)c1)c1cnccc1-c1ccccc1Cl (as salt: hydrochloride)
melting point: 186 to 188 °C
//
compound: Cc1ccccc1-c1cc(N(C)C)ncc1N(C)C(=O)C(C)(C)c1cc(C(F)(F)F)cc(C(F)(F)F)c1 (as salt: hydrochloride)
melting point: 174 to 175 °C
//
compound: CC(C)c1cc(Cl)ncc1C(=O)NC(C)(C)C
melting point: 130 to 140 °C (dec.)

* * *

molecules and their reported Ki
systemTested: human NK1 receptor (Homo sapiens, UniProt P25103)
Sequence (P25103 whole entry): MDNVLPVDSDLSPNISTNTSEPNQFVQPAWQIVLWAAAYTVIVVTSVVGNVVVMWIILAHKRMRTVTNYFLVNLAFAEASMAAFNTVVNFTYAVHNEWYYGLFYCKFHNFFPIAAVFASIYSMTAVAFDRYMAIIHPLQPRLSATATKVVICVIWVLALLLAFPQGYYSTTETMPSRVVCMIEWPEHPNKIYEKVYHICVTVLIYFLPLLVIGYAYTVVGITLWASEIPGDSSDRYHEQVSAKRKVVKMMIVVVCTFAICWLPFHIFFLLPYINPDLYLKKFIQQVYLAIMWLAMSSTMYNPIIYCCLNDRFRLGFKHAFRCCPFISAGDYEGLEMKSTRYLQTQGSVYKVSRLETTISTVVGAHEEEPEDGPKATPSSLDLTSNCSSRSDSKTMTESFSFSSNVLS
testSummary: [3H]substance P binding at human NK1 receptors in CHO cells
measurementSetup: [3H]substance P 0.6 nM, 60 min room temperature, read-out: affinity (pKi) for the human NK1 receptor (converted)

compoundStructureString: Cc1ccccc1-c1cc(N2CCN(C)CC2)ncc1N(C)C(=O)C(C)(C)c1cc(C(F)(F)F)cc(C(F)(F)F)c1
Ki (nM): 1
//
compoundStructureString: CN(C(=O)C(C)(C)c1cc(C(F)(F)F)cc(C(F)(F)F)c1)c1cnccc1-c1ccccc1Cl
Ki (nM): 2.51
//
compoundStructureString: Cc1ccccc1-c1cc(N(C)CCN2CCOCC2)ncc1N(C)C(=O)C(C)(C)c1cc(C(F)(F)F)cc(C(F)(F)F)c1
Ki (nM): 2
//
compoundStructureString: Cc1ccccc1-c1ccncc1N(C)C(=O)C(C)(C)c1cc(C(F)(F)F)cc(C(F)(F)F)c1
Ki (nM): 3.39

* * *

systemTested: human NK1 receptor (Homo sapiens)
testSummary: [3H]substance P binding at human NK1 receptors in CHO cells
measurementSetup: [3H]substance P 0.6 nM, 60 min room temperature, read-out: affinity (pKi) for the human NK1 receptor (converted)
Procedure: All assays were performed in triplicate in at least2 separate experiments.
measureName: Ki (nM)

compoundStructureString: Cc1ccccc1-c1cc(N2CCNCC2)ncc1N(C)C(=O)C(C)(C)c1cc(C(F)(F)F)cc(C(F)(F)F)c1
measureName: Ki
reading: 1

compoundStructureString: Cc1ccccc1-c1cc(N2CCOCC2)ncc1N(C)C(=O)C(C)(C)c1cc(C(F)(F)F)cc(C(F)(F)F)c1
measureName: Ki
reading: 1

compoundStructureString: Cc1ccccc1-c1cc(N2CCN(Cc3n[nH]c(=O)[nH]3)CC2)ncc1C(=O)N(C)Cc1cc(C(F)(F)F)cc(C(F)(F)F)c1
measureName: Ki
reading: 0.288

* * *

compounds and their reported Vd
testSummary: Pharmacokinetic parameters in rats
measurementSetup: rat, in vivo, read-out: volume of distribution
measureName: Vd

compound: Cc1ccccc1-c1cc(N2CCN(C)CC2)ncc1N(C)C(=O)C(C)(C)c1cc(C(F)(F)F)cc(C(F)(F)F)c1 [Ib]
measureName: Vd
reading: 5.7 L/kg

compound: Cc1ccccc1-c1cc(N2CCOCC2)ncc1N(C)C(=O)C(C)(C)c1cc(C(F)(F)F)cc(C(F)(F)F)c1 [Ia]
measureName: Vd
reading: 8 L/kg

compound: CN(C(=O)C(C)(C)c1cc(C(F)(F)F)cc(C(F)(F)F)c1)c1cnccc1-c1ccccc1Cl [Ic]
measureName: Vd
reading: 2.6 L/kg

Measured values drawn from patent US20020091265A1 for this set.
